This collection of values is drawn from PubChem BioAssay AID1259407.

- System: CCRIS mutagenicity, Ames/micronucleus/aberration tests
- protocolSummary: CCRIS mutagenicity studies
- setupConditions: Test System: AMES SALMONELLA TYPHIMURIUM; Strain/Indicator: TA104; Metabolic Activation: NONE; Method: STANDARD PLATE
Active and inactive are the calls of the source. The rule behind the calls is not given here.
Labels: Y = active, N = inactive

recordSmiles: Oc1cc(Cl)c(Cl)cc1Cl
systemName: CCRIS mutagenicity, Ames/micronucleus/aberration tests
assignedLabel: N
//
recordSmiles: CN1CCCC1=O
systemName: CCRIS mutagenicity, Ames/micronucleus/aberration tests
assignedLabel: N
//
recordSmiles: NCCc1cc(O)c(O)cc1O
systemName: CCRIS mutagenicity, Ames/micronucleus/aberration tests
assignedLabel: Y
//
recordSmiles: COc1cccc2c1C(=O)c1c(O)c3c(c(O)c1C2=O)C[C@@](O)(C(=O)CO)C[C@@H]3O[C@H]1C[C@H](N)[C@H](OC)[C@H](C)O1
systemName: CCRIS mutagenicity, Ames/micronucleus/aberration tests
assignedLabel: Y
//
recordSmiles: OO
systemName: CCRIS mutagenicity, Ames/micronucleus/aberration tests
assignedLabel: Y
//
recordSmiles: CN(C)CCn1cc[n+](C)c1/C=N/O
systemName: CCRIS mutagenicity, Ames/micronucleus/aberration tests
assignedLabel: N
//
recordSmiles: Cc1cc(C(C)(C)C)c(O)c(C(C)(C)C)c1
systemName: CCRIS mutagenicity, Ames/micronucleus/aberration tests
assignedLabel: N

###

- System: CCRIS mutagenicity, Ames/micronucleus/aberration tests
- protocolSummary: CCRIS mutagenicity studies
- setupConditions: Test System: AMES SALMONELLA TYPHIMURIUM; Strain/Indicator: TA98; Metabolic Activation: HAMSTER, LIVER, S-9; Method: STANDARD PLATE
Active and inactive are the calls of the source. How the calls were made is not given here.
Outcomes: true (1) (active), false (0) (inactive)

recordSmiles: Nc1ccc2cc3ccc(N)cc3nc2c1
assignedLabel: true (1)
//
recordSmiles: CC(=O)c1ccc(S(=O)(=O)NC(=O)NC2CCCCC2)cc1
assignedLabel: false (0)
//
recordSmiles: CC(=O)N(O)c1ccc2c(c1)Cc1ccccc1-2
assignedLabel: true (1)
//
recordSmiles: COc1cc(-c2ccc(N=C=O)c(OC)c2)ccc1N=C=O
assignedLabel: true (1)
//
recordSmiles: CC(=O)Nc1ccc2c(c1)Cc1ccccc1-2
assignedLabel: true (1)
//
recordSmiles: CCOc1ccc(NC(C)=O)cc1N
assignedLabel: true (1)

###

- Test system: CCRIS mutagenicity, Ames/micronucleus/aberration tests
- protocolSummary: CCRIS mutagenicity studies
- setupConditions: Test System: AMES SALMONELLA TYPHIMURIUM; Strain/Indicator: TA102; Metabolic Activation: S-9; Method: PREINCUBATION
The source made the active and inactive calls. How the calls were made is not given here.
parameterMeasured: mutagenic call

molecule: CC(=C/C=C/C(C)=C/C=C/C=C(C)/C=C/C=C(C)/C=C/C(=O)O)/C=C/C(=O)O
measValue: inactive; negative

molecule: C=CC(=O)O
measValue: inactive; negative

molecule: CC(=O)CC(O)(CC(=O)O)C(=O)O (centres undefined)
measValue: inactive; negative

molecule: [O]=[Mg]
measValue: inactive; negative

###

- Test system: CCRIS mutagenicity, Ames/micronucleus/aberration tests
- protocolSummary: CCRIS mutagenicity studies
- setupConditions: Test System: AMES SALMONELLA TYPHIMURIUM; Strain/Indicator: TA98; Metabolic Activation: NONE; Method: PREINCUBATION
The source made the active and inactive calls. No rule for the calls is given here.
Possible outcomes: YES (active), NO (inactive)

compound: NNc1nncc2ccncc12
assignedLabel: YES
--
compound: C=C(C)[C@H]1CC=C(C)C(=O)C1
assignedLabel: NO
--
compound: CCCCCCCCCCCCCl
assignedLabel: NO
--
compound: CCC(Cl)C(Cl)C(Cl)CC(Cl)C(Cl)C(C)Cl (stereo not drawn)
assignedLabel: NO
--
compound: CC(C)CC(=O)CC(C)C
assignedLabel: NO
--
compound: OC1C=Cc2c(ccc3c2-c2cccc4cccc-3c24)C1O (stereo not drawn)
assignedLabel: NO
--
compound: O=C1CCCCC1
assignedLabel: NO
--
compound: CNS(=O)(=O)c1ccc(N)cc1
assignedLabel: NO
--
compound: CC1CCc2c(N3CCC(O)CC3)c(F)cc3c(=O)c(C(=O)O)cn1c23 (stereo not drawn)
assignedLabel: NO
--
compound: O=C(Cl)c1ccc(Cl)cc1
assignedLabel: NO
--
compound: C=CC(=O)OCC(C)C
assignedLabel: NO
--
compound: Cc1ccc(Nc2ccc([N+](=O)[O-])cc2)cc1
assignedLabel: YES
--
compound: COc1cc(-c2ccc(N/N=C3/C(=O)c4c(N)cc(S(=O)(=O)O)cc4C=C3S(=O)(=O)O)c(OC)c2)ccc1N/N=C1/C(=O)c2c(N)cc(S(=O)(=O)O)cc2C=C1S(=O)(=O)O
assignedLabel: NO
--
compound: O=C1CCCCCCCCCCCC(=O)OCCO1
assignedLabel: NO
--
compound: Cc1ccc2c(c1)C(=O)c1cc(O)ccc1C2=O
assignedLabel: NO
--
compound: CC(=O)Nc1ccc(N)cc1
assignedLabel: NO
--
compound: C=CCc1ccc(OC)c(OC)c1
assignedLabel: NO
--
compound: Nc1cccc2cccnc12
assignedLabel: YES
--
compound: Cc1ccc(S(=O)(=O)NN)cc1
assignedLabel: NO
--
compound: CS
assignedLabel: NO
--
compound: CCc1c(Br)c(Br)c(Br)c(Br)c1Br
assignedLabel: NO
--
compound: Nc1cc([N+](=O)[O-])ccc1O
assignedLabel: NO
--
compound: O=[N+]([O-])c1ccc(F)c([N+](=O)[O-])c1
assignedLabel: YES
--
compound: CCC(=O)O
assignedLabel: NO
--
compound: COC(=O)N/N=C/c1c[n+]([O-])c2ccccc2[n+]1[O-]
assignedLabel: YES
--
compound: CCCC(=O)Cl
assignedLabel: NO
--
compound: O[C@@H]1[C@H]2O[C@H]2c2c(ccc3ccccc23)[C@H]1O
assignedLabel: YES
--
compound: [Cl][V]([Cl])[Cl]
assignedLabel: NO
--
compound: OCc1ccc2ccc3cccc4ccc1c2c34
assignedLabel: NO
--
compound: ClCC(Cl)COCC(Cl)CCl (stereo not drawn)
assignedLabel: NO
--
compound: CC1=NN(c2ccccc2)C(=O)C1
assignedLabel: NO
--
compound: Cc1ccc([N+](=O)[O-])cc1N=O
assignedLabel: YES
--
compound: c1cc2c3c(cccc3c1)CC2
assignedLabel: NO
--
compound: O=[N+]([O-])c1cc(CCl)cc([N+](=O)[O-])c1
assignedLabel: YES
--
compound: CCNc1ccccc1
assignedLabel: NO
--
compound: C=CC1CC=CCC1 (stereo not drawn)
assignedLabel: NO
--
compound: Nc1cc(Cl)ccc1O
assignedLabel: NO
--
compound: Nc1ccc(Cl)cc1Cl
assignedLabel: NO
--
compound: NO
assignedLabel: NO
--
compound: Clc1cccc(Cl)c1
assignedLabel: NO
--
compound: Cc1ccc(N)c(C)c1
assignedLabel: NO
--
compound: CCCCOP(=O)(OCCCC)Oc1ccccc1
assignedLabel: NO
--
compound: C[N+]1([O-])CCC[C@H]1c1cccnc1 (stereo partly drawn)
assignedLabel: NO
--
compound: CNC(=O)c1cccc(NCC(=O)NCCc2ccc(OC)c(OC)c2)c1
assignedLabel: NO
--
compound: O=C1c2ccccc2C(=O)c2cc(O)ccc21
assignedLabel: YES
--
compound: CC(=O)c1cc(NC(=O)NC(C)(C)C)ccc1OCC(O)CNC(C)(C)C (stereo not drawn)
assignedLabel: NO
--
compound: C[O+](C)C.[Cl][Sb-]([Cl])([Cl])([Cl])([Cl])[Cl]
assignedLabel: NO
--
compound: Nc1ccc2c(c1)C(=O)/C(=N/Nc1ccc(-c3ccc(N/N=C4/C(=O)c5c(N)cc(S(=O)(=O)O)cc5C=C4S(=O)(=O)O)cc3)cc1)C(S(=O)(=O)O)=C2
assignedLabel: YES
--
compound: Cc1[nH]c(=O)c(C#N)cc1-c1ccncc1
assignedLabel: NO
--
compound: CCOc1ccccc1N
assignedLabel: NO
--
compound: Cc1cnc[nH]1
assignedLabel: NO
--
compound: CN(C)CCN(Cc1cccs1)c1ccccn1
assignedLabel: NO
--
compound: O=NN(CCO)CCO
assignedLabel: YES
--
compound: CCc1cccc(CC)c1N(COC)C(=O)CCl
assignedLabel: NO
--
compound: CC(c1ccccc1)N(C)C (stereo not drawn)
assignedLabel: NO
--
compound: c1ccc(OP(Oc2ccccc2)Oc2ccccc2)cc1
assignedLabel: NO
--
compound: O=C(CBr)c1ccccc1
assignedLabel: NO
--
compound: C=C[C@H]1CN2CC[C@H]1C[C@H]2[C@H](OC(=O)OCC)c1ccnc2ccc(OC)cc12
assignedLabel: NO

###

- Tested on: CCRIS mutagenicity, Ames/micronucleus/aberration tests
- protocolSummary: CCRIS mutagenicity studies
- setupConditions: Test System: AMES SALMONELLA TYPHIMURIUM; Strain/Indicator: TA1537; Metabolic Activation: NONE; Method: STANDARD PLATE
The source made the active and inactive calls. The rule behind the calls is not given here.
Labels: 1.0 (active), 0.0 (inactive)

recordSmiles: Nc1cc([N+](=O)[O-])c(N)cc1Cl
systemName: CCRIS mutagenicity, Ames/micronucleus/aberration tests
assignedLabel: 0.0
//
recordSmiles: ClC(Cl)(Cl)Cl
systemName: CCRIS mutagenicity, Ames/micronucleus/aberration tests
assignedLabel: 1.0
//
recordSmiles: CNC[C@H](O)[C@@H](O)[C@H](O)[C@H](O)CO.CNC[C@H](O)[C@@H](O)[C@H](O)[C@H](O)CO.O=C([O-])CN(CCN(CC(=O)[O-])CC(=O)[O-])CCN(CC(=O)[O-])[C@H](COCc1ccccc1)C(=O)[O-].[Gd+3].[H+].[H+]
systemName: CCRIS mutagenicity, Ames/micronucleus/aberration tests
assignedLabel: 0.0
//
recordSmiles: CCN1CCN(C(=O)N[C@@H](C(=O)N[C@@H]2C(=O)N3[C@@H]2SC(C)(C)[C@@H]3C(=O)O)c2ccccc2)C(=O)C1=O
systemName: CCRIS mutagenicity, Ames/micronucleus/aberration tests
assignedLabel: 0.0
